Literature-derived IC50 for Glycogen synthase kinase-3 beta (Homo sapiens) follows.
metric name: IC50 (µM)

The examples below pair each entry with its known result.
{"molecule": "CC(C)Oc1ccncc1NC(=O)c1ccnn2c(NC(=O)C3CCC3)cnc12", "IC50 / µM": 0.14}
{"molecule": "COc1ccc(-c2ccnc(Nc3cccc([N+](=O)[O-])c3)n2)cc1", "IC50 / µM": 0.03}

A: COc1ccc(Nc2nccc(-c3cccc(CO)c3)n2)cn1
B: O=C(c1cnccn1)N1CCC[C@@H]1c1nc(Nc2cc(C3CC3)[nH]n2)c2cccn2n1
Query: Could you kindly indicate whether A or B has the higher IC50 value? # answer = label of selected item
Result: A
